Test system: OVCAR-3 ovarian
Assay: NCI-60 one-dose screen, 48 h (100 = growth as untreated, 0 = no growth, -100 = all killed)
Conditions: 10 µM
Compounds without any hit were thinned out: in the full panel of roughly 83,000, 20% have a hit.
observation_type: growth (%)
API: value field is a number in %; no unit string.

Note to self: growth of "CC[C@@]1(O)C(=O)OCc2c1cc1n(c2=O)Cc2c-1nc1cc(F)c(C)c3c1c2[C@@H](N)CC3" with OVCAR-3 ovarian was -17.8

Note to self: growth of "CC(=O)Nc1ccc(-n2cnc3cc(-c4ccc(O)cc4)ccc32)cc1F" with OVCAR-3 ovarian was 6.74

Note to self: growth of "Cc1ccc(-c2nc(Nc3ccc(S(N)(=O)=O)cc3)c3ccccc3n2)cc1" with OVCAR-3 ovarian was 61.9

Note to self: growth of "COc1ccc2[nH]c(=O)c(CSc3cccc(N)c3)cc2c1" with OVCAR-3 ovarian was 66.9

Note to self: growth of "COc1ccc(-c2cc(C(=O)N=Nc3c(O)[nH]c4ccccc34)c3ccccc3n2)cc1" with OVCAR-3 ovarian was -93.2

Note to self: growth of "Cn1c(O)c(N=Nc2nc(-c3cc4ccccc4oc3=O)cs2)c2cc(Br)ccc21" with OVCAR-3 ovarian was 96.4
